observation.type: melting point

Solved cases (3 shown):
COC(=O)C1=C(O)c2ccccc2S(=O)(=O)N1CC(=O)Nc1cccc(C)c1 ... 192 to 194 °C
COC(=O)C1=C(O)c2ccccc2S(=O)(=O)N1CC(=O)Nc1ccc(OC)cc1 ... 176 to 178 °C
COC(=O)C1=C(O)c2ccccc2S(=O)(=O)N1CC(=O)Nc1ccccc1C(=O)OC ... 178 to 180 °C

Asked: Which melting point is listed for COC(=O)C1=C(O)c2ccccc2S(=O)(=O)N1CC(=O)Nc1ccccc1 ?
Given back: 188 to 190 °C

Asked: // query: COC(=O)C1=C(O)c2ccccc2S(=O)(=O)N1CC(=O)Nc1ccccc1C
Given back: 172 to 174 °C

Asked: // query: COC(=O)C1=C(O)c2ccccc2S(=O)(=O)N1CC(=O)Nc1ccc([N+](=O)[O-])cc1
Given back: 192 to 194 °C

Asked: // query: COC(=O)C1=C(O)c2ccccc2S(=O)(=O)N1CC(=O)Nc1cccc(Cl)c1Cl
Given back: 154 to 156 °C
